- Tested on: UACC-62 melanoma
- experiment_summary: NCI-60 one-dose screen, 48 h (100 = growth as untreated, 0 = no growth, -100 = all killed)
- reported_conditions: 10 µM unless noted
About 83,000 compounds went through this panel and 20% of them were active in at least one assay; those are over-represented in the sample as a whole.
value_type: growth (%)

| molecule | value_reported |
| --- | --- |
| Cc1ccc(/C=C/C(=O)c2ccc(S(=O)(=O)NCCNc3nc(N(C)C)nc(N4CCOCC4)n3)cc2)cc1 | 72.6 |
| CNc1nc2ccccc2n2c(-c3ccc(O)c(O)c3)cnc12 | 4.77 |
| Cc1cc(=O)oc2cc(OCC(O)CNN3C(=O)c4cccc5c(N6CCN(C)CC6)ccc(c45)C3=O)ccc12 (stereo not drawn) | 79.2 |
| NS(=O)(=O)c1ccc(N2N=C(c3ccc(NC(=O)Nc4ccccc4)cc3)CC2c2ccc(Br)cc2)cc1 (stereo not drawn) | -96.2 |
| O=C(Cc1c(-c2ccccc2[N+](=O)[O-])n(-c2ncnc3c2c(-c2ccccc2)c(-c2ccccc2)n3Cc2ccccc2)[nH]c1=O)c1ccc(Cl)c(Cl)c1 | -9.59 |
| Cc1nn(-c2ccccc2)c2nc(C)n(CC(=O)N/N=C/c3ccccc3O)c(=O)c12 | 3.15 |
| Cc1ccc(-c2cc(C(=O)N=Nc3c(O)[nH]c4ccc(F)cc34)c3ccccc3n2)cc1 | 59.9 |
| CCOc1ccccc1[C@H]1C(C(=O)c2ccc(Cl)cc2)C2(N[C@@H]1c1ccccc1)C(=O)Nc1ccc(Cl)cc12 (stereo partly drawn) | 17.5 |

---

- Test system: SK-OV-3 ovarian
- experiment_summary: NCI-60 one-dose screen, 48 h (100 = growth as untreated, 0 = no growth, -100 = all killed)
- reported_conditions: 10 µM unless noted
About 83,000 compounds went through this panel and 20% of them were active in at least one assay; those are over-represented in the sample as a whole.

| compound | units_label | growth |
| --- | --- | --- |
| OC1CCC(Cn2c(C(F)(F)F)cc3c(Cl)ncnc32)CC1 (centres undefined) | % | 57.7 |
| Nc1cc2ccccc2c(=O)n1NC(=O)c1ccc(Br)cc1 | % | 115 |
| CS(=O)(=O)Nc1cc(-c2ccc3ncnc(N4CCc5cc(F)c(Cl)cc54)c3c2)cnc1Cl | % | -17.5 |
| O=C(Nc1nc2ccc([N+](=O)[O-])cc2s1)Nc1ccc(Cl)cc1Cl | % | 4.05 |
| Clc1ccc(CNc2nc(SCCN3CCOCC3)nc3c2cnn3CC(Cl)c2ccc(Br)cc2)cc1 (centres undefined) | % | 62.5 |
| Cc1ccc(C(=O)Nc2cc(-n3ccnc3C)cc(C(F)(F)F)c2)cc1C#Cc1cnc2cccnn12 | % | -0.287 |
| O=C(NN1C(=O)/C(=C/C=C/c2ccc([N+](=O)[O-])o2)SC1=S)c1ccncc1 | % | -99 |
| COc1cc(/C=N/NC(=O)c2ccc(OCc3nc4ccc(C)cc4[nH]3)cc2)cc(OC)c1OC | % | 106 |
| CN(C)CCCNC(=S)Nc1ccc(/C=C/c2ccc(Cl)cc2)cc1 | % | -56.9 |
| O=C(CSc1nnc(-c2ccc(-c3nc4ccc(Cl)cc4[nH]3)cc2)o1)Nc1ccc(Cl)cc1 | % | 81.1 |
| CN(C)c1nc(NCCNS(=O)(=O)c2ccc(C(=O)/C=C/c3ccc(F)cc3)cc2)nc(N2CCOCC2)n1 | % | 82.5 |
| C#CCN(C)CCCOc1ccc(N(C)C(=O)c2cc(C(C)C)c(O)cc2O)cc1Cl | % | 16.2 |
| CN(C)c1nc(NCCNS(=O)(=O)c2ccc(C(=O)/C=C/c3ccc(Cl)cc3)cc2)nc(N2CCOCC2)n1 | % | 73.9 |
| COc1cc(/C=N/NC(=O)c2ccc(OCc3nc4ccc(Cl)cc4[nH]3)cc2)cc(OC)c1OC | % | 97.7 |
| CCOC(=O)/C(F)=C/C1CC1CCc1ccc(OCC)cc1 (centres undefined) | % | 75.3 |
| CCN1C(=O)N(CC)C2NNC(Sc3c(C(=O)O)c4ccccc4n(CC(C)C)c3=O)=NC21 (centres undefined) | % | 40.6 |
| CN(C)c1nc(NCCNS(=O)(=O)c2ccc(C3=Nc4c(N)nc(N)nc4NC(c4ccc(Cl)cc4)C3)cc2)nc(N2CCOCC2)n1 (centres undefined) | % | 75.9 |
| COC(=O)c1cc(C(C)=O)n2c3ccccc3c3ccccc3c12 | % | 99.3 |
| CNc1nc2ccccc2n2c(-c3ccc(O)c(O)c3)cnc12 | % | 16.5 |

Data credit: PubChem BioAssay (NCI)
